system: CP325; experiment: qHTS profiling for inhibitors of Plasmodium falciparum proliferation (AID 504749); also: nearly all actives have a fitted effect of over 60% in size; settings: P. falciparum in erythrocytes, SYBR Green DNA, 72 h; series mostly up to 12.8 µM
Results filed as inconclusive are left out. The source made the active and inactive calls. Calls follow the shape of the dose curve; as a rule, active = well fitted inhibition curve with a large enough effect; inconclusive = small, poorly fitted or top-dose-only effect; inactive = flat fitted curve, though single readings scatter.
Select the correct class. Options are active, inactive and nothing else.

Worked cases, answers included:
• NC[C@@H]1O[C@H](O[C@@H]2[C@H](O[C@@H]3O[C@H](CO)[C@@H](O)[C@@H]3O)[C@@H](O)[C@@H](N)C[C@H]2N)[C@@H](N)[C@H](O)[C@@H]1O = inactive
• CC(C)(C)NC[C@@H](O)COc1ccccc1C1CCCC1 = active
• NS(=O)(=O)c1cc2c(cc1Cl)N[C@@H](C(Cl)Cl)NS2(=O)=O = inactive
• CC=C(/C(=C/C)c1ccc(O)cc1)c1ccc(O)cc1 = inactive
• NC(C(=O)O)[C@@H]1CC(Cl)=NO1 (some centres not stated) = active
• CC(=O)OC1CCC2C3CCc4cc(O)ccc4C3CCC12C (configuration not stated) = inactive

IN: Record request — test call for `C[C@@]12CC[C@H]3[C@@H](CCC4=CC(=O)CC[C@]43C)[C@H]1CC[C@H]2C(=O)CO`
OUT: inactive

IN: Record request — test call for `CC[C@@H]1OC(=O)[C@H](C)[C@H](O[C@@H]2C[C@](C)(OC)[C@H](O)[C@H](C)O2)[C@H](C)[C@H](O[C@@H]2O[C@@H](C)C[C@@H](N(C)C)[C@@H]2O)[C@](C)(O)C[C@H](C)C(=NOCOCCOC)[C@H](C)[C@H](O)[C@]1(C)O`
OUT: inactive

IN: Record request — test call for CC(=O)O[C@@]1(C(C)=O)CCC2C3CC(C)C4=CC(=O)CC[C@@]4(C)C3CC[C@]21C (some centres not stated)
OUT: inactive

IN: Record request — test call for `C[C@@H](C(=O)O)c1ccc(C(=O)c2ccccc2)s1`
OUT: inactive

IN: Record request — test call for `C[C@]1(c2ccccc2)OC(C(=O)O)=CC1=O`
OUT: inactive

IN: Record request — test call for CC1CCC(C(C)C)C(=O)C1 (configuration not stated)
OUT: inactive

IN: Record request — test call for `NS(=O)(=O)c1cc2c(cc1Cl)N[C@@H](CC1CCCC1)NS2(=O)=O`
OUT: inactive

IN: Record request — test call for `CCN[C@@H]1C[C@H](N)[C@H](O[C@H]2OC(CN)=CC[C@H]2N)[C@@H](O)[C@H]1O[C@H]1OC[C@@](C)(O)[C@@H](NC)[C@@H]1O`
OUT: inactive

IN: Record request — test call for `CC(=O)OCC(=O)[C@@]1(O)[C@H](C)C[C@@H]2[C@H]3CCC4=CC(=O)C=C[C@]4(C)[C@]3(F)[C@@H](O)C[C@@]21C`
OUT: inactive

IN: Record request — test call for `C[C@H]1CC[C@]2(OC1)O[C@@H]1C[C@@H]3[C@@H]4CC[C@H]5C[C@@H](O)CC[C@]5(C)[C@@H]4CC(=O)[C@@]3(C)[C@H]1[C@@H]2C`
OUT: inactive

IN: Record request — test call for CC(=O)N[C@@H]1C(O)OC(CO)C(O)C1O (some centres not stated)
OUT: inactive
